B1: FBF1 (parent)
chain: LQRASILDMRRDHEEQLQRLKLLK

variants of: B1; assay: protein stability index of a GFP-peptide fusion (GPS, HEK-293T) (PSI 1-6); higher = more stable; details: c terminus: a fixed tail appended;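 further: lentivirally expressed fusions sorted by FACS into six bins by GFP to DsRed ratio, PSI derived from sequencing read proportions per bin multiplied by bin number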
Property: protein stability index
A bare number is all that is needed in reply.

Reference set, count: 8
Residue codes: WQRASILDMRRDHEEQLQRLKLLK [L1W]
Numeric result: 3.22

Residue codes: LQRASILDMVRDHEEQLQRLKLLK [R10V]
Numeric result: 3.33

Residue codes: LQRASILDMRQDHEEQLQRLKLLK [R11Q]
Numeric result: 3.59

Residue codes: LQRASILDMRRDHEEQLQRLKLDK [L23D]
Numeric result: 4.62

Residue codes: LQRASILDMRRDHEEILQRLKLLK [Q16I]
Numeric result: 2.28

Residue codes: LQRASILDMPRDHEEQLQRLKLLK [R10P]
Numeric result: 3.53

Residue codes: LQRAEILDMRRDHEEQLQRLKLLK [S5E]
Numeric result: 3.15

Residue codes: LQHASILDMRRDHEEQLQRLKLLK [R3H]
Numeric result: 3.92

// query Consider the variant shown here: LQRASILDMRRDHEEQLQRLKLGK [L23G] What is its recorded protein stability index?
// result 3.94

// query How about this variant: LQRASILDMRRDHEEQLQRLKHLK [L22H]
// result 4.1

// query How about this variant: LQRASQLDMRRDHEEQLQRLKLLK [I6Q]
// result 4.06

// query How about this variant: LQRASILDMRRDHEEQLQTLKLLK [R19T]
// result 2.85
